target: PD-L1 His protein / PD-1 Fc protein (Homo sapiens, UniProt Q9NZQ7); assay: HTRF Assay (PD-1/PD-L1 interaction); conditions: PD-L1 His 6 nM, PD-1 Fc 6 nM
Sequence (Q9NZQ7 19-238 limits assumed): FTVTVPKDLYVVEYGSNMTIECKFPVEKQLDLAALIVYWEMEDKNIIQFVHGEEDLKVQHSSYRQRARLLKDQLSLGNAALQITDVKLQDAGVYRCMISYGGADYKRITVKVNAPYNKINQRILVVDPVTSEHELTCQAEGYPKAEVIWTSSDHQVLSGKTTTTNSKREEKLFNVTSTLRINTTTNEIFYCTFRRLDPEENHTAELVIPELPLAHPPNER
pIC50: −log10 of the molar value.
Kindly return met if reported pIC50 is no lower than 9; return not met if it is lower.

Here are 3 molecules together with their reported answers.
entry_smiles | target_or_test_system | answer_label
COc1nc(-c2cccc(-c3cccc(-c4ccn5c(=O)c(CNC[C@@H]6CCC(=O)N6)cnc5c4)c3Cl)c2Cl)cc(Cl)c1CNC[C@@H]1CCC(=O)N1 | PD-L1 His protein / PD-1 Fc protein (Homo sapiens, UniProt Q9NZQ7) | not met
COc1nc(-c2cccc(-c3cccc(-c4ccn5c(=O)c(CNC[C@@H]6CCC(=O)N6)cnc5c4)c3Cl)c2C(F)(F)F)ccc1CNC[C@@H]1CCC(=O)N1 | PD-L1 His protein / PD-1 Fc protein (Homo sapiens, UniProt Q9NZQ7) | not met
Cc1c(-c2ccn3c(=O)c(CNC[C@@H]4CCC(=O)N4)cnc3c2)cccc1-c1cccc(-c2ccc(CNC[C@@H]3CCC(=O)N3)c(N(C)C)n2)c1Cl | PD-L1 His protein / PD-1 Fc protein (Homo sapiens, UniProt Q9NZQ7) | not met

Turning to the following molecule.
// query hey, is pIC50 for this one >= 9? "COc1nc(-c2cccc(-c3cccc(-c4cn5c(CNC[C@@H]6CCC(=O)N6)cnc5cn4)c3Cl)c2Cl)ccc1CNC[C@@H]1CCC(=O)N1"
// result met

Hey, just so you know, these numbers are from patent US20230143612A1.
